B1: KRT18 (parent)
chain: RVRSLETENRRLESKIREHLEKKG

- Variants of: B1
- protocol_details: protein stability index of a GFP-peptide fusion (GPS, HEK-293T) (PSI 1-6); higher = more stable;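 note: lentivirally expressed fusions sorted by FACS into six bins by GFP to DsRed ratio, PSI derived from sequencing read proportions per bin multiplied by bin number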
- condition_set: c terminus: a fixed tail appended
Respond with satisfied for protein stability index values of 4 and above, not satisfied for values below.

Answered examples (5):
>>> group_label("RVRSLETENRRLESKIREHLERKG [K22R]")
"satisfied"
>>> group_label("RVRSLETENRRLESKIRQHLEKKG [E18Q]")
"not satisfied"
>>> group_label("RVRSLFTENRRLESKIREHLEKKG [E6F]")
"not satisfied"
>>> group_label("RVRSLETENRRLESKIRCHLEKKG [E18C]")
"not satisfied"
>>> group_label("RVRSLETENRRLESKIREHLFKKG [E21F]")
"not satisfied"

Would you say RTRSLETENRRLESKIREHLEKKG [V2T] shows protein stability index at minimum 4?
satisfied

Would you say RVRSLETENRRLESKIREHLEKIG [K23I] shows protein stability index at minimum 4?
not satisfied

Would you say RVRSLETYNRRLESKIREHLEKKG [E8Y] shows protein stability index at minimum 4?
not satisfied

Would you say RVRSTETENRRLESKIREHLEKKG [L5T] shows protein stability index at minimum 4?
satisfied

Would you say RVRSLETENRRLMSKIREHLEKKG [E13M] shows protein stability index at minimum 4?
not satisfied

Would you say RVRSLETENRRLPSKIREHLEKKG [E13P] shows protein stability index at minimum 4?
satisfied

Would you say RVRSLETENRRLESNIREHLEKKG [K15N] shows protein stability index at minimum 4?
satisfied

Would you say RVRSLDTENRRLESKIREHLEKKG [E6D] shows protein stability index at minimum 4?
satisfied

Would you say RVRSLETENRRLESKIIEHLEKKG [R17I] shows protein stability index at minimum 4?
satisfied

Would you say RVRSLETENRRLESWIREHLEKKG [K15W] shows protein stability index at minimum 4?
not satisfied

Would you say RVRSLETENRRLVSKIREHLEKKG [E13V] shows protein stability index at minimum 4?
not satisfied

Would you say GVRSLETENRRLESKIREHLEKKG [R1G] shows protein stability index at minimum 4?
satisfied
